// endpoint IC50 / system Melanin Concentrating Hormone Receptor 1 (MCHR1) (Homo sapiens (Human), UniProt Q99705)

{"compound": "COc1cc(OC2CN(C(=O)c3nnc(-c4ccccc4)o3)C2)ccc1CN1CCCC12COC2", "unitLabel": "nM", "IC50": 34}
{"compound": "Cc1cc(OC2CN(C(=O)c3nnc(-c4ccccc4)o3)C2)ccc1CN1CC2(CCCO2)C1", "unitLabel": "nM", "IC50": 15}
{"compound": "COc1ccc(-c2nnc(C(=O)N3CC(Oc4ccc(CN5CCCC56CCOC6)cc4)C3)o2)cc1 (stereo not shown)", "unitLabel": "nM", "IC50": 23}
{"compound": "Cc1cc(OC2CN(C(=O)c3nnc(-c4ccccc4)o3)C2)ccc1CN1CCC2(CCOC2)C1 (stereo not shown)", "unitLabel": "nM", "IC50": 18}
{"compound": "O=C(c1nnc(-c2ccccc2)o1)N1CC(Oc2ccc(CN3CCC4(CCCO4)C3)cc2)C1 (stereo not shown)", "unitLabel": "nM", "IC50": 23}
{"compound": "Cc1cc(OC2CN(C(=O)c3nnc(-c4ccccc4)o3)C2)ccc1CN1CC2(CCOC2)C1", "unitLabel": "nM", "IC50": 15}
{"compound": "COc1cc(CN2CCCC23COC3)ccc1OC1CN(C(=O)c2nnc(-c3ccccc3)o2)C1", "unitLabel": "nM", "IC50": 420}
{"compound": "O=C(c1nnc(-c2ccccc2)o1)N1CC(Oc2ccc(CN3CCC4(CCOC4)C3)cc2)C1 (stereo not shown)", "unitLabel": "nM", "IC50": 19}
{"compound": "O=C(c1nnc(-c2ccccc2)o1)N1CC(Oc2ccc(CN3CCCC34COC4)cc2)C1", "unitLabel": "nM", "IC50": 70}
{"compound": "COc1ccc(-c2nnc(C(=O)N3CC(Oc4ccc(CN5CC6(CCOC6)C5)cc4)C3)o2)cc1", "unitLabel": "nM", "IC50": 19}
